Target: T1, human TGFβ3 (human, UniProt P10600 301-412)
T1 sequence: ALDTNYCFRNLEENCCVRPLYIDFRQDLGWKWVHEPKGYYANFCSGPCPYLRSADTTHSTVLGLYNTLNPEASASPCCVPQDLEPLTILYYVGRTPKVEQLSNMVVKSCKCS
Experiment: Biacore off-rate vs wt GC1008, 50 nM

binder	kd var/kd wt
I54M (antibody, V domains shown, GC1008 IgG4 variant) VH: QVQLVQSGAEVKKPGSSVKVSCKASGYTFSSNVISWVRQAPGQGLEWMGGVIPMVDIANYAQRFKGRVTITADESTSTTYMELSSLRSEDTAVYYCASTLGLVLDAMDYWGQGTLVTVSS VL: ETVLTQSPGTLSLSPGERATLSCRASQSLGSSYLAWYQQKPGQAPRLLIYGASSRAPGIPDRFSGSGSGTDFTLTISRLEPEDFAVYYCQQYADSPITFGQGTRLEIK	1.7
S30D (antibody, V domains shown, GC1008 IgG4 variant) VH: QVQLVQSGAEVKKPGSSVKVSCKASGYTFDSNVISWVRQAPGQGLEWMGGVIPIVDIANYAQRFKGRVTITADESTSTTYMELSSLRSEDTAVYYCASTLGLVLDAMDYWGQGTLVTVSS VL: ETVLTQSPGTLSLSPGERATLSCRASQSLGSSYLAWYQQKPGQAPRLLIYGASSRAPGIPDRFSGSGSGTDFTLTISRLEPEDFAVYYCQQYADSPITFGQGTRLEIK	1.1

Entry source: patent US20170342144A1
